These entries and their values trace back to the RNAGym collection of RNA variant scans (doi:10.1093/nar/gkz1192).

B1: CPEB3 Ribozyme (parent)
chain: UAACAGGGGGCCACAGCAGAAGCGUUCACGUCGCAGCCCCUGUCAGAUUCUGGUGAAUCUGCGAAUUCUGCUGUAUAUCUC

# Variants of: B1
# protocol-description: self-cleavage, relative activity (ratio to wild type); higher = more cleavage; in vitro, sequencing
Exercise: state measured self-cleavage for each of the variants provided.
Output spec: single numeric token, no unit.

Returns the measured self-cleavage for the input variant. Input: A2G U60C 0.25

Returns the measured self-cleavage for the input variant. Input: A21G U54G 0.4

Returns the measured self-cleavage for the input variant. Input: U49C U74A 0.71

Returns the measured self-cleavage for the input variant. Input: G7U C37A 0.17

Returns the measured self-cleavage for the input variant. Input: G24U U67C 0.1

Returns the measured self-cleavage for the input variant. Input: C27A C44G 0.07

Returns the measured self-cleavage for the input variant. Input: A18C U80A 0.54

Returns the measured self-cleavage for the input variant. Input: A2G A18U 0.38

Returns the measured self-cleavage for the input variant. Input: A5G G52A 1

Returns the measured self-cleavage for the input variant. Input: A2U G52C 1.04

Returns the measured self-cleavage for the input variant. Input: G9U U48C 0.29

Returns the measured self-cleavage for the input variant. Input: G9A A56G 0.18

Returns the measured self-cleavage for the input variant. Input: U43C G61A 0.22

Returns the measured self-cleavage for the input variant. Input: A64G U80A 1.03

Returns the measured self-cleavage for the input variant. Input: A20G C38U 0.37

Returns the measured self-cleavage for the input variant. Input: U25G U48C 0.36

Returns the measured self-cleavage for the input variant. Input: U60A U80C 0.63

Returns the measured self-cleavage for the input variant. Input: A13G A20C 0.27

Returns the measured self-cleavage for the input variant. Input: A47G U66A 0.45

Returns the measured self-cleavage for the input variant. Input: A45U C50A 0.16

Returns the measured self-cleavage for the input variant. Input: U43A A56U 0.88

Returns the measured self-cleavage for the input variant. Input: A21G C68A 0.17

Returns the measured self-cleavage for the input variant. Input: A28C U31C 0.35

Returns the measured self-cleavage for the input variant. Input: A20U U43A 0.45

Returns the measured self-cleavage for the input variant. Input: U25A A56U 0.27

Returns the measured self-cleavage for the input variant. Input: A28G C59U 0.54

Returns the measured self-cleavage for the input variant. Input: G10A A56U 0.12

Returns the measured self-cleavage for the input variant. Input: "G63U" 1.09

Returns the measured self-cleavage for the input variant. Input: U43C G63A 0.47

Returns the measured self-cleavage for the input variant. Input: C39U U51G 0.89

Returns the measured self-cleavage for the input variant. Input: A57G U74C 1.15

Returns the measured self-cleavage for the input variant. Input: A15G G63C 0.86

Returns the measured self-cleavage for the input variant. Input: G53C U58C 0.68

Returns the measured self-cleavage for the input variant. Input: A35U C50A 0.43

Returns the measured self-cleavage for the input variant. Input: G33C C40A 0.15

Returns the measured self-cleavage for the input variant. Input: U26A A47U 0.58

Returns the measured self-cleavage for the input variant. Input: G24A G61A 0.19

Returns the measured self-cleavage for the input variant. Input: U76A U78C 1.1

Returns the measured self-cleavage for the input variant. Input: C27A U48C 0.11

Returns the measured self-cleavage for the input variant. Input: A28U A47G 0.89

Returns the measured self-cleavage for the input variant. Input: G19A G52A 0.16

Returns the measured self-cleavage for the input variant. Input: U41C C71G 0.4

Returns the measured self-cleavage for the input variant. Input: A21U U51A 0.43

Returns the measured self-cleavage for the input variant. Input: U41C C71A 0.33

Returns the measured self-cleavage for the input variant. Input: A5U G7A 0.22

Returns the measured self-cleavage for the input variant. Input: G10A A45G 0.22

Returns the measured self-cleavage for the input variant. Input: U41A G53A 0.38

Returns the measured self-cleavage for the input variant. Input: A18G U67C 0.26

Returns the measured self-cleavage for the input variant. Input: U43G C62U 0.26

Returns the measured self-cleavage for the input variant. Input: U60G U69A 0.39

Returns the measured self-cleavage for the input variant. Input: A35G G53A 1.33

Returns the measured self-cleavage for the input variant. Input: C59A U69C 0.23

Returns the measured self-cleavage for the input variant. Input: A3G A5G 0.76

Returns the measured self-cleavage for the input variant. Input: A20U A35G 0.87

Returns the measured self-cleavage for the input variant. Input: A45C G55C 0.11

Returns the measured self-cleavage for the input variant. Input: U31C G36A 0.13

Returns the measured self-cleavage for the input variant. Input: C32G A77U 0.2

Returns the measured self-cleavage for the input variant. Input: A3C U51C 1.12

Returns the measured self-cleavage for the input variant. Input: G33C A56U 0.14

Returns the measured self-cleavage for the input variant. Input: C34G U48C 0.21

Returns the measured self-cleavage for the input variant. Input: A20C A28G 0.24

Returns the measured self-cleavage for the input variant. Input: C12A A64G 1.21

Returns the measured self-cleavage for the input variant. Input: G30A U51G 0.1

Returns the measured self-cleavage for the input variant. Input: U51A A75U 1.03

Returns the measured self-cleavage for the input variant. Input: A21C A45G 0.41

Returns the measured self-cleavage for the input variant. Input: A45C A56U 0.25

Returns the measured self-cleavage for the input variant. Input: G9C U58G 0.06

Returns the measured self-cleavage for the input variant. Input: A65G A75U 0.41

Returns the measured self-cleavage for the input variant. Input: U48A C62U 0.43

Returns the measured self-cleavage for the input variant. Input: A18U G61C 0.14

Returns the measured self-cleavage for the input variant. Input: G16A U41C 0.49

Returns the measured self-cleavage for the input variant. Input: G55U U60A 0.27

Returns the measured self-cleavage for the input variant. Input: G8C U54C 0.44

Returns the measured self-cleavage for the input variant. Input: A47G U54C 1.01

Returns the measured self-cleavage for the input variant. Input: A5C U67A 0.48

Returns the measured self-cleavage for the input variant. Input: A28C G61U 0.2

Returns the measured self-cleavage for the input variant. Input: G6C A21U 0.39

Returns the measured self-cleavage for the input variant. Input: U26A G55U 0.77

Returns the measured self-cleavage for the input variant. Input: A56U A75U 0.79

Returns the measured self-cleavage for the input variant. Input: G7U A47C 0.37

Returns the measured self-cleavage for the input variant. Input: A5C U49C 0.54

Returns the measured self-cleavage for the input variant. Input: U25C U54A 0.28

Returns the measured self-cleavage for the input variant. Input: A21U G70C 0.05

Returns the measured self-cleavage for the input variant. Input: C23U U31C 0.22

Returns the measured self-cleavage for the input variant. Input: G55C U74G 1.13

Returns the measured self-cleavage for the input variant. Input: U25A U78G 0.37

Returns the measured self-cleavage for the input variant. Input: C11U A56G 0.32

Returns the measured self-cleavage for the input variant. Input: A18C C79A 0.9

Returns the measured self-cleavage for the input variant. Input: G22U C59U 0.16

Returns the measured self-cleavage for the input variant. Input: A20U A35U 0.22

Returns the measured self-cleavage for the input variant. Input: A3U G10A 0.1
